Cited source for all entries: paper PMC4870556

# target.under.test: wild type ScErg11p6 × His (Saccharomyces cerevisiae)
# Construct: full-length Saccharomyces cerevisiae hexahistidine-tagged Erg11p (ScErg11p6 × His); made in house; host or cells: Saccharomyces cerevisiae strain AD3ΔScErg11p (overexpression from the PDR5 locus, native ERG11 deleted)
# Sequence (P10614 whole entry): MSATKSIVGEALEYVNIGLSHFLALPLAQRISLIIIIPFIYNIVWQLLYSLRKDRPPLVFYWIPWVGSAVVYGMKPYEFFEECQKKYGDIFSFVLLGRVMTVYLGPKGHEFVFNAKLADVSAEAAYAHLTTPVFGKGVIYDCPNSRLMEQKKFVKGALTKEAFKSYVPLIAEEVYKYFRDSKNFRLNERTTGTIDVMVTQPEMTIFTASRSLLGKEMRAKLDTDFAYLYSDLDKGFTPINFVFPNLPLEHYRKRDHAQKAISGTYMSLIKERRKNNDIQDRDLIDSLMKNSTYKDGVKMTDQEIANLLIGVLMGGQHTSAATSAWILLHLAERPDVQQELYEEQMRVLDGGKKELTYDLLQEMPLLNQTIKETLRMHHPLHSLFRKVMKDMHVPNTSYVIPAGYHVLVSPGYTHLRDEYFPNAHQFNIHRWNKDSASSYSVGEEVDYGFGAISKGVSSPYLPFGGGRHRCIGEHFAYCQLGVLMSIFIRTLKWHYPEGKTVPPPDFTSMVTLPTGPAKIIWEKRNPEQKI
# procedure.text: Type II difference spectra triazole binding to affinity purified wild type enzyme
# setup.conditions: wild-type enzyme 1 μM
Would you mind telling me the reported Hill number of each entry?
Keep it simple and answer with nothing but the number.

Request: Returns the measured Hill number for the input molecule. Input: C[C@@H](c1ncncc1F)[C@](O)(Cn1cncn1)c1ccc(F)cc1F
Result: 2.7

Request: Returns the measured Hill number for the input molecule. Input: OC(Cn1cncn1)(Cn1cncn1)c1ccc(F)cc1F
Result: 3.0

Request: Returns the measured Hill number for the input molecule. Input: CCC(C)n1ncn(-c2ccc(N3CCN(c4ccc(OCC5COC(Cn6cncn6)(c6ccc(Cl)cc6Cl)O5)cc4)CC3)cc2)c1=O (stereo not shown)
Result: 1.6

Request: Returns the measured Hill number for the input molecule. Input: CC[C@@H]([C@H](C)O)n1ncn(-c2ccc(N3CCN(c4ccc(OC[C@@H]5CO[C@@](Cn6cncn6)(c6ccc(F)cc6F)C5)cc4)CC3)cc2)c1=O
Result: 2.2
